Listing of recorded displacement by entry.
- system_tested: Bcl-2-like protein 10 (Homo sapiens) (UniProt Q9HD36)
- Sequence (Q9HD36 whole entry, looked up): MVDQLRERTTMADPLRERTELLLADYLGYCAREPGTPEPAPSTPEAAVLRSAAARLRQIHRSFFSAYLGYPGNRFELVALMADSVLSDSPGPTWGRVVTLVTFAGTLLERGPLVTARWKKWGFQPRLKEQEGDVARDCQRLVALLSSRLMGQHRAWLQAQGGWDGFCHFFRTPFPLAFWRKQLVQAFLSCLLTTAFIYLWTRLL
- experiment: TR3 peptide-Bcl-B binding displacers, biochemical primary FP assay, phenotype converters (AID 1240);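 also: 0% = Bcl-B with tracer peptide and DMSO and 100% = tracer peptide lacking Bcl-B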
- details: GST-Bcl-B / FITC-TR3 peptide fluorescence polarization; stronger effect = higher value; compound at 3.75 mg/L
The campaign covered roughly 50,000 compounds. About 800 (1.6%) showed an effect of 50% or more. Many of the other results were omitted from the sample, so strong results are more common in it than they were.
Give the quantity in %, number only.

Example entries begin here.
molecule=COc1ccc(N2C(=O)NC(=O)/C(=C/c3cccc(OCc4ccccc4F)c3)C2=O)cc1 system_tested="Bcl-2-like protein 10 (Homo sapiens) (UniProt Q9HD36)" observable=displacement reported_result=0.1
molecule="CC(=O)SCCC(=O)N1CCn2c3c(c4cc(C)ccc42)CCCC31 (stereo not drawn)" system_tested="Bcl-2-like protein 10 (Homo sapiens) (UniProt Q9HD36)" observable=displacement reported_result=14.3
molecule=COc1ccc(N2C(=O)NC(=O)/C(=C/c3ccc(-c4ccc(F)cc4)o3)C2=O)cc1 system_tested="Bcl-2-like protein 10 (Homo sapiens) (UniProt Q9HD36)" observable=displacement reported_result=100
molecule="CC(=O)N1N=C2CC(C)(C)OCC2C1c1ccccc1 (stereo not drawn)" system_tested="Bcl-2-like protein 10 (Homo sapiens) (UniProt Q9HD36)" observable=displacement reported_result=12
molecule=O=C1NC(=O)N(c2ccccc2)C(=O)/C1=C\c1ccc(OCc2ccccc2F)cc1 system_tested="Bcl-2-like protein 10 (Homo sapiens) (UniProt Q9HD36)" observable=displacement reported_result=12.9

Challenge: Entry `CC(=O)Nc1ccc(NC2=C(Cl)C(=O)c3ccccc3C2=O)cc1` : reported displacement = ?
Response given: 7.1

Challenge: Entry `CCOC(=O)C(=C/C=C/c1ccccc1)C(=O)OCC` : reported displacement = ?
Response given: -2.3

Challenge: Entry `FC(F)(F)c1nc2ccccc2n1CC#CCn1c(C(F)(F)F)nc2ccccc21` : reported displacement = ?
Response given: -1.1
